test: protein stability index of a GFP-peptide fusion (yeast GPS) (PSI 1-4); higher = more stable; sorted into four equal gates, so the index is relative within each strain; conditions: pdr5∆
Measured protein stability index by item
Quick one: just the number, no unit, thanks!

Record excerpt, results attached:
{"sequence entry": "NALEHKYFTESDIPVSE [SSN3]", "protein stability index": 2.75}
{"sequence entry": "AHMSIGCLHKGKLISNL [YML031W/NDC1]", "protein stability index": 1.9}
{"sequence entry": "NSASNNGNLTSNQLISN [SWI1]", "protein stability index": 2.14}
{"sequence entry": "HKMGVERSSKRLAKKPS [SIR3]", "protein stability index": 3.27}
{"sequence entry": "REGSSARTIKATLPYIK [RPB2]", "protein stability index": 3.17}
{"sequence entry": "VGSENVECTISILRKSS [SNF12]", "protein stability index": 2.23}
{"sequence entry": "TAGNWVASQTVKKVIEI [PRE2]", "protein stability index": 3.35}
{"sequence entry": "LLLDNGFNMKKITTSTE [SRP68]", "protein stability index": 2.22}

Task: Looking for the measured protein stability index of QQRIVSAYEASMVYSNV [RRP4] , can you help?
Output: 2.62

Task: Follow-up item: LATDVTTLNEMFRYKTN [PUP3]
Output: 2.72

Task: Follow-up item: SYLEERERQVNEKLADL [RPC53]
Output: 3.42

Task: Follow-up item: TQGGNVNLDNTAVGKAA [RPT5]
Output: 3.28

Task: Follow-up item: TNVEDPLAKKQTVRLIK [SIR2]
Output: 3.08
